The compounds listed here are annotated with their Activity.
System: Blumeria graminis
ASSAY: Fungicidal activity against Blumeria graminis infected on foliar spray based compound pre-treated first-leaf stage 7 day old barley plants assessed as barley powdery mildew disease control level at 250 ppm measured 7 days post fungal exposure relative to untreated control
Format: functional
ENDPOINT LABEL: Activity (%)

COMPOUND: CCON=Cc1onc2c1CCOC2c1ccc(Cl)cc1 (mixture of isomers)
ENDPOINT LABEL: Activity
RESULT VALUE: 81
--
COMPOUND: OCc1onc2c1CCOC2c1ccc(Cl)cc1 (stereo not drawn)
ENDPOINT LABEL: Activity
RESULT VALUE: 3
--
COMPOUND: C=CCON=Cc1onc2c1CCOC2c1ccccc1Cl (mixture of isomers)
ENDPOINT LABEL: Activity
RESULT VALUE: 80
